Source of measurements: PubChem BioAssay

experiment: thallium flux activation in parental CHO cells, counter-screen for KCNQ1 potentiator project (AID 493006); details: parental CHO-K1 cells, FluxOR thallium flux, at 10 µM;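 for activation: fluorescence ratio of max minus min over baseline after K+ and Tl+ depolarization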
The source made the active and inactive calls.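 Rule for the calls: active = duplicate-averaged activation above buffer control mean plus 5 SD of those controls; inactive = the rest.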
The reply should name one outcome from YES = active, NO = inactive

Past entries and their recorded results:
- molecule: "CC(C)(C)NC(=O)C(=O)NNC(=O)c1cccc(F)c1"
  assigned.label: "YES"
- molecule: "O=C(NC(=S)Nc1ccc(N2CCCCC2)c(Cl)c1)c1cccs1"
  assigned.label: "YES"
- molecule: "O=C(NC(=S)Nc1ccccc1N1CCCCC1)c1cccs1"
  assigned.label: "YES"
- molecule: "Fc1ccc(COc2ccc(Br)cc2CNCc2ccncc2)cc1"
  assigned.label: "NO"

Kindly provide the recorded test outcome for the following molecule: CC(C)c1ccc(/C=C2\SC(N3CCOCC3)=NC2=O)cc1
NO

Kindly provide the recorded test outcome for the following molecule: CC(=O)/C=C/c1ccc2ccccc2n1
NO

Kindly provide the recorded test outcome for the following molecule: CCOC(=O)c1cccc(C(=O)Nc2nc3ccc(OC)cc3s2)n1
NO

Kindly provide the recorded test outcome for the following molecule: Cc1ccc(C(=O)OCC(=O)N(C)c2ccccc2)cc1C
YES
